Source listed as patent US20190194179A1.

Would you kindly list IC50 for each of these molecules?
tested on: Neisseria gonorrhoeae; experiment: EC50 determination: plate-based broth growth assay (absorbance at 600 nm) of Neisseria gonorrhoeae; format: cell-based; details: absorbance 600 nm after 20 hours at 37° C./5% CO2, read-out: IC50 (Inhibitory concentration) against Neisseria gonorrhoeae

Worked examples follow.
{"Molecule": "c1nnc(Nc2nc3ccc(N4CCCCC4)cc3o2)o1 [Example 184]", "IC50": "≤ 1 µM"}
{"Molecule": "Fc1ccc2oc(Nc3nc4cnccc4o3)nc2c1 [Example 160]", "IC50": "≤ 100 µM"}
{"Molecule": "O=[N+]([O-])c1ccc2nc(Nc3nnco3)oc2c1 [Example 186]", "IC50": "≤ 10 µM"}
{"Molecule": "OCc1ccc2nc(Nc3nnco3)oc2c1 [Example 181]", "IC50": "≤ 10 µM"}
{"Molecule": "FC(F)(F)c1cc2nc(Nc3nnco3)oc2cc1Cl [Example 138]", "IC50": "≤ 0.1 µM"}
{"Molecule": "Cc1nnc(Nc2nc3cncc(Cl)c3o2)o1 [Example 64]", "IC50": "≤ 10 µM"}
{"Molecule": "Fc1cc(Cl)cc2oc(Nc3nnco3)nc12 [Example 176]", "IC50": "≤ 1 µM"}
{"Molecule": "O=C(NC1CC1)c1csc(Nc2nc3ccc(F)cc3o2)n1 [Example 19]", "IC50": "≤ 1 µM"}

For each of the molecules below, note its IC50.
1. Cc1nnc(Nc2nc3cc(C(F)(F)F)c(Cl)cc3o2)[nH]1 [Example 125]
2. FC1(F)CCN(Cc2nnc(Nc3nc4cc(C(F)(F)F)ccc4o3)o2)C1 [Example 74]
3. Cc1csc(Nc2nc3cc(C(F)(F)F)ccc3o2)n1 [Example 7]
4. O=C1CCCN1c1ccc2nc(Nc3nnco3)oc2c1 [Example 212]
5. CN1CCC[C@H]1c1nnc(Nc2nc3cc(C(F)(F)F)ccc3o2)o1 [Example 126]

1. ≤ 0.1 µM
2. ≤ 1 µM
3. ≤ 1 µM
4. ≤ 100 µM
5. ≤ 1 µM

Please give IC50, item by item, for the list that follows.
1. c1nnc(Nc2nc3ccc(N4CCOCC4)cc3o2)o1 [Example 185]
2. COC(=O)c1ccc2oc(Nc3nnc(C)o3)nc2c1 [Example 44]

≤ 10 µM
≤ 0.1 µM

* * *

tested on: Neisseria gonorrhoeae; test: EC50 determination: plate-based broth growth assay (absorbance at 600 nm) of Neisseria gonorrhoeae; format: cell-based; settings: absorbance 600 nm after 20 hours at 37° C./5% CO2, read-out: IC50 (Inhibitory concentration) against Neisseria gonorrhoeae
pIC50: −log10 of the molar value.
Provide the reported pIC50 of each item.

Recorded results for 4 molecules are shown here.
{"Molecule": "FC(F)(F)c1cc2oc(Nc3nc4cnccc4o3)nc2cn1", "Measured Result": "≥ 4.00"}
{"Molecule": "FC1CCN(Cc2nnc(Nc3nc4cc(C(F)(F)F)ccc4o3)o2)C1 (centres unmarked)", "Measured Result": "≥ 6.00"}
{"Molecule": "N#Cc1nnc(Nc2nc3ccc(F)cc3o2)o1", "Measured Result": "≥ 6.00"}
{"Molecule": "O=C(NC1CC1)c1csc(Nc2nc3ccccc3o2)n1", "Measured Result": "≥ 6.00"}

Below are some molecules; for each one, tell me its pIC50.
1. CC(C)c1ccc2nc(Nc3nnco3)oc2c1
2. Clc1cc2nc(Nc3nnco3)oc2cc1Cl
3. Cc1cc2nc(Nc3nnco3)oc2cc1F
4. NC(=O)c1csc(Nc2nc3cc(C(F)(F)F)ccc3o2)n1
5. Cc1nnc(Nc2nc3c(C(F)(F)F)cccc3o2)o1
6. Fc1cc2nc(Nc3nnco3)oc2cc1Cl

["≥ 6.00", "≥ 7.00", "≥ 7.00", "≥ 6.00", "≥ 5.00", "≥ 7.00"]

Would you mind giving pIC50 for every molecule in the list below?
1. Clc1cc(Cl)c2nc(Nc3nnc(CN4CCCC4)[nH]3)oc2c1
2. COCCn1c(C)nnc1Nc1nc2cc(C(F)(F)F)c(Cl)cc2o1
3. Cc1nnc(Nc2nc3cc(C(F)(F)F)c(Cl)cc3n2C)[nH]1
4. CCNC(=O)c1csc(Nc2nc3cc(C(F)(F)F)ccc3o2)n1

1: ≥ 6.00; 2: ≥ 6.00; 3: ≥ 4.00; 4: ≥ 6.00
